Give measured IC50 for each item. Keep answers brief.
Test system: Trichomonas vaginalis
EXPERIMENTAL PROTOCOL: […] activity against Trichomonas vaginalis G3 after 24 hrs by hemocytometry
Assay type: functional
EXPERIMENTAL CONTEXT: G3, 24 h
Numbers only, in µM.

Worked examples, 2 compounds total:
O=C1C(=O)N(Cc2cn([C@@H]3C(=O)N(Cc4ccccc4)[C@@H]3/C=C/c3ccccc3)nn2)c2ccccc21 (relative stereo)
8.68
Cc1ccc(N2C(=O)[C@@H](n3cc(CN4C(=O)C(=O)c5cc(F)ccc54)nn3)[C@H]2/C=C/c2ccccc2)cc1 (relative stereo)
22.1

Batch lookup, IC50 per entry.
1. O=C1C(=O)N(Cc2cn([C@@H]3C(=O)N(c4ccc(F)cc4)[C@@H]3/C=C/c3ccccc3)nn2)c2ccccc21 (relative stereo)
2. O=C1C(=O)N(Cc2cn([C@@H]3C(=O)N(c4ccc(Cl)cc4)[C@@H]3/C=C/c3ccccc3)nn2)c2ccc(Cl)cc21 (relative stereo)
3. O=C1C(=O)N(Cc2cn([C@@H]3C(=O)N(c4ccccc4)[C@@H]3/C=C/c3ccccc3)nn2)c2ccc(Br)cc21 (relative stereo)
4. Cc1ccc2c(c1)C(=O)C(=O)N2Cc1cn([C@@H]2C(=O)N(C3CCCCC3)[C@@H]2/C=C/c2ccccc2)nn1 (relative stereo)
5. O=C1C(=O)N(Cc2cn([C@@H]3C(=O)N(c4ccc(Cl)cc4)[C@@H]3/C=C/c3ccccc3)nn2)c2ccccc21 (relative stereo)

[7.69, 9.94, 9.34, 44.5, 8.27]
